All values here come from patent US9957261B2.

- Assay system: rat TAAR1 (Rattus norvegicus (Rat))
- Sequence (Q923Y9 whole entry): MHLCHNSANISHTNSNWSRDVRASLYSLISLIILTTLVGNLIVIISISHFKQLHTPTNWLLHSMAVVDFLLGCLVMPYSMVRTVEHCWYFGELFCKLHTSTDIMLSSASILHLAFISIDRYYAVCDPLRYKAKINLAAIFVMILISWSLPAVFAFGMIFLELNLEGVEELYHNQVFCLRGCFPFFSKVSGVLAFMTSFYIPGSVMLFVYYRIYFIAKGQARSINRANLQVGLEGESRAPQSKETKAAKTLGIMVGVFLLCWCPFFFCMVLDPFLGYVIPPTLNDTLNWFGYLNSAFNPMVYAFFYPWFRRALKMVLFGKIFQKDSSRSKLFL
- Assay details: Radioligand binding assay on rat TAAR1
- Test parameters: rat TAAR1, membranes of stably transfected HEK-293 cells; second value of mouse/rat pair
Entries annotated with measured Ki
Reported property: Ki (µM)

N[C@H]1CCc2c(ccc(NC(=O)c3ccc(Cl)nc3)c2Cl)C1; 0.302
CCOc1cc(C(=O)Nc2ccc3c(c2)CC[C@H](N)C3)ccn1; 0.0216
N[C@H]1COc2cc(NC(=O)c3cc(Cl)nc(Cl)c3)ccc2C1; 0.0077
CCc1ccc(NC(=O)c2ccc3c(c2)CCC(N)C3)cc1 (stereo not drawn); 0.0456
N[C@H]1COc2cc(Nc3ncc(Cl)cn3)ccc2C1; 0.0374
NC1CCc2cc(C(=O)Nc3ccc(F)cc3)ccc2C1 (stereo not drawn); 0.0964
N[C@H]1CCc2cc(NC(=O)Nc3ccc(Cl)cc3)ccc2C1; 0.0005
N[C@H]1CCc2cc(NC(=O)c3cc(Cl)nc(Cl)c3)ccc2C1; 0.0022
N[C@H]1CCc2cc(NC(=O)c3cnn(-c4ccc(OC(F)(F)F)cc4)c3)ccc2C1; 0.0005
